Reference source: the supplement of paper PMC10567573

B1: SPOPL (parent)
chain: AKREETKAMESQRAYRFVQGKDWG

- Variants of: B1
- test description: protein stability index of a GFP-peptide fusion (GPS, HEK-293T) (PSI 1-6); higher = more stable;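 also: lentivirally expressed fusions sorted by FACS into six bins by GFP to DsRed ratio, PSI derived from sequencing read proportions per bin multiplied by bin number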
- assay context: c terminus: a fixed tail appended
property measured: protein stability index

Would you please look over these solved cases?
- mutation label: "K21A"
  reported measurement: 2.96
- mutation label: "K21Y"
  reported measurement: 3.08
- mutation label: "K21T"
  reported measurement: 3.04

We now examine a further variant.
Query: protein stability index; subject: E10T
3.06
